target: UniProt:C7C422; assay: In vitro enzyme inhibition assay, purified NDM-1 (imipenem hydrolysis, UV 299 nm); format: biochemical; conditions: mean Ki from multiple experiments; imipenem 300 μM; Cheng-Prusoff from IC50; read-out: Ki NDM-1
pKi: −log10 of the molar value.
Hi there, I'd appreciate the recorded pKi for every entry that follows.

Param item = O=C(CNC1=NCCN1)Nc1cc(F)c(S(=O)(=O)Nc2scnc2C(=O)O)cc1F ; retrieve measured pKi.
> 7.30

Param item = N=C(N)NNC(=O)Nc1c(F)cc(S(=O)(=O)Nc2scnc2C(=O)O)cc1F ; retrieve measured pKi.
> 7.30

Param item = CN(C)C(=N)CC(=O)Nc1ccc(S(=O)(=O)Nc2scnc2C(=O)O)cc1F ; retrieve measured pKi.
6.70 to 7.30

Param item = N=C(N)CC(=O)Nc1c(F)cc(S(=O)(=O)Nc2scnc2C(=O)O)cc1F ; retrieve measured pKi.
> 7.30

Param item = CNC(=N)NCC(=O)Nc1ccc(S(=O)(=O)Nc2scnc2C(=O)O)cc1F ; retrieve measured pKi.
5.70 to 6.70

Param item = N=C(N)NOCC(=O)Nc1ccc(S(=O)(=O)Nc2scnc2C(=O)O)cc1F ; retrieve measured pKi.
5.70 to 6.70

Param item = N=C(N)NCCOC(=O)Nc1ccc(S(=O)(=O)Nc2scnc2C(=O)O)cc1F ; retrieve measured pKi.
> 7.30

Param item = N=C(N)NNC(=O)Nc1ccc(S(=O)(=O)Nc2scnc2C(=O)O)cc1F ; retrieve measured pKi.
> 7.30

Param item = N=C(N)NCCC(=O)Nc1ccc(S(=O)(=O)Nc2scnc2C(=O)O)cc1F ; retrieve measured pKi.
6.70 to 7.30

Param item = N=C(N)NCC(=O)Nc1ccc(S(=O)(=O)Nc2scnc2C(=O)O)cc1 ; retrieve measured pKi.
6.70 to 7.30

* * *

Hi there, I'd appreciate the recorded pKi for every entry that follows.
target: NDM-1 (Klebsiella pneumoniae, UniProt C7C422); assay: In vitro enzyme inhibition assay, purified NDM-1 (imipenem hydrolysis, UV 299 nm); assay type: biochemical; conditions: mean Ki from multiple experiments; imipenem 300 μM; Cheng-Prusoff from IC50; read-out: Ki NDM-1
Sequence (C7C422 29-270, looked up): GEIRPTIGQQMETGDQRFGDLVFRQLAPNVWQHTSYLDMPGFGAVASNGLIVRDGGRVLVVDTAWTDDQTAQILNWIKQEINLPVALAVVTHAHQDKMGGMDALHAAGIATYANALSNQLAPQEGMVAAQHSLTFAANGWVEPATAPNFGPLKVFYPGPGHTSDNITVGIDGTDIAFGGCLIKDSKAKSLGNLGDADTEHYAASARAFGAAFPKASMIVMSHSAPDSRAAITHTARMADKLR
pKi: −log10 of the molar value.

Give recorded pKi with NDM-1 (Klebsiella pneumoniae, UniProt C7C422) for the following molecule: COc1cc(S(=O)(=O)Nc2scnc2C(=O)O)ccc1NC(=O)CNC(=N)N
6.70 to 7.30

Give recorded pKi with NDM-1 (Klebsiella pneumoniae, UniProt C7C422) for the following molecule: N=C(N)NC(=O)Nc1ccc(S(=O)(=O)Nc2scnc2C(=O)O)cc1F
6.70 to 7.30

Give recorded pKi with NDM-1 (Klebsiella pneumoniae, UniProt C7C422) for the following molecule: N=C(N)NCC(=O)NCc1ccc(S(=O)(=O)Nc2scnc2C(=O)O)cc1F
5.70 to 6.70

Give recorded pKi with NDM-1 (Klebsiella pneumoniae, UniProt C7C422) for the following molecule: O=C(CNC1=NCCN1)Nc1c(F)cc(S(=O)(=O)Nc2scnc2C(=O)O)cc1F
6.70 to 7.30

Give recorded pKi with NDM-1 (Klebsiella pneumoniae, UniProt C7C422) for the following molecule: N=C(N)NCC(=O)Nc1ccc(S(=O)(=O)Nc2scnc2C(=O)O)cc1F
6.70 to 7.30

Give recorded pKi with NDM-1 (Klebsiella pneumoniae, UniProt C7C422) for the following molecule: CN(CC(=O)Nc1ccc(S(=O)(=O)Nc2scnc2C(=O)O)cc1F)C(=N)N
6.70 to 7.30

Give recorded pKi with NDM-1 (Klebsiella pneumoniae, UniProt C7C422) for the following molecule: N=C(N)NCC(=O)Nc1ccc(S(=O)(=O)Nc2scnc2C(=O)O)cc1OC(F)(F)F
6.70 to 7.30

Give recorded pKi with NDM-1 (Klebsiella pneumoniae, UniProt C7C422) for the following molecule: CC(C(=N)N)C(=O)Nc1ccc(S(=O)(=O)Nc2scnc2C(=O)O)cc1F (centres unmarked)
5.70 to 6.70

Measured values drawn from patent US11299467B2 for this set.
